Below, each of the compounds is paired with its reported M. tuberculosis 103471 MIC value.
Test system: M. tuberculosis 103471
Assay: Antimycobacterial activity, MIC in Middlebrook 7H9 broth (NCCLS procedure)
Type: cell-based
Conditions: extracellular M. tuberculosis 103471
Unit µg/mL implied. Number only.

COMPOUND | TGT | M. tuberculosis 103471 MIC [µg/mL]
Cc1c(CN2CCSCC2)cc(-c2ccccc2F)n1-c1ccc(F)cc1 | M. tuberculosis 103471 | 0.5
Cc1c(CN2CCSCC2)cc(-c2ccc(F)cc2F)n1-c1ccc(F)cc1 | M. tuberculosis 103471 | 0.5
Cc1c(CN2CCN(C)CC2)cc(-c2ccc(Cl)cc2Cl)n1-c1ccc(F)cc1 | M. tuberculosis 103471 | 8
Cc1c(CN2CCN(C)CC2)cc(-c2ccc(F)cc2)n1-c1cccc2ccccc12 | M. tuberculosis 103471 | 4
Cc1c(CN2CCN(C)CC2)cc(-c2ccc(F)cc2F)n1-c1ccc(F)cc1 | M. tuberculosis 103471 | 4
Cc1ccc(-n2c(-c3ccc(F)cc3)cc(CN3CCN(C)CC3)c2C)cc1 | M. tuberculosis 103471 | 16
Cc1c(CN2CCSCC2)cc(-c2ccc(F)cc2)n1-c1ccc(F)cc1F | M. tuberculosis 103471 | 2
Cc1c(CN2CCN(C)CC2)cc(-c2cccc3ccccc23)n1-c1ccc(F)cc1 | M. tuberculosis 103471 | 16

# next compound below
Query block: Tell us which M. tuberculosis 103471 MIC value is on record for "Cc1c(CN2CCN(C)CC2)cc(-c2ccccc2F)n1-c1ccc(F)cc1"
Result block: 16

###

System: M. tuberculosis 103471
Assay: Antimycobacterial activity, MIC in Middlebrook 7H9 broth (NCCLS procedure)
Type: cell-based
Conditions: Mycobacterium tuberculosis, 103471, read-out: M. tuberculosis 103471 MIC (μg/mL)
MIC vs 0.3 µg/mL: less than gives YES; not less than gives NO.

COMPOUND | TGT | ANSWER_LABEL
NNC(=O)c1ccncc1 [Isoniazid, reference compound] | M. tuberculosis 103471 | YES
Cc1c(CN2CCSCC2)cc(-c2ccc(F)cc2)n1-c1ccccc1F [Compound 7c] | M. tuberculosis 103471 | NO
Cc1ccc(-c2cc(CN3CCSCC3)c(C)n2-c2ccc(F)cc2)cc1 [Compound 6e] | M. tuberculosis 103471 | NO
[H]/N=C(/N)N[C@H]1[C@H](O)[C@@H](O)[C@H](O[C@@H]2O[C@@H](C)[C@](O)(C=O)[C@H]2O[C@@H]2O[C@@H](CO)[C@H](O)[C@@H](O)[C@@H]2NC)[C@@H](N/C(N)=N\[H])[C@@H]1O [Streptomycin, reference compound] | M. tuberculosis 103471 | NO

Now look at this entry.
Query block: Does the reported MIC of Cc1c(CN2CCN(C)CC2)cc(-c2ccc(Cl)cc2)n1-c1ccc(Cl)cc1 [BM212, reference compound] stay below 0.3 µg/mL?
Result block: NO

###

Test system: VERO cells
Assay: Cytotoxicity on Vero cell monolayers (MNTD50)
Type: cell-based
Settings: maximum 50% non-toxic dose, 5 days
Below, each of the compounds is paired with its reported MNTD50 (μg/mL) VERO cells value.

COMPOUND | TGT | VALUE_KIND | OBSERVED
Cc1c(CN2CCN(C)CC2)cc(-c2ccc(F)cc2)n1-c1ccccc1Cl | VERO cells | MNTD50 (μg/mL) VERO cells | 8 µg/mL
Cc1c(CN2CCSCC2)cc(-c2ccc(F)cc2)n1-c1ccc(F)cc1F | VERO cells | MNTD50 (μg/mL) VERO cells | 16 µg/mL
Cc1c(CN2CCN(C)CC2)cc(-c2ccc(Cl)cc2)n1-c1ccc(Cl)cc1 [BM212, reference compound] | VERO cells | MNTD50 (μg/mL) VERO cells | 4 µg/mL

# next compound below
Query block: Report value only: MNTD50 (μg/mL) VERO cells, VERO cells, "Cc1c(CN2CCSCC2)cc(-c2ccc(F)cc2)n1-c1cccc2ccccc12"
Result block: 2 µg/mL

###

Test system: VERO cells
Experiment: Cytotoxicity on Vero cell monolayers (MNTD50)
Assay type: cell-based
Settings: maximum 50% non-toxic dose, 5 days
VALUE_KIND: MNTD50 (μg/mL) VERO cells (µg/mL)
Unit µg/mL implied. Number only.

Query block: Report value only: MNTD50 (μg/mL) VERO cells, VERO cells, "Cc1c(CN2CCSCC2)cc(-c2ccc(Cl)cc2Cl)n1-c1ccc(F)cc1"
Result block: 64

Query block: Report value only: MNTD50 (μg/mL) VERO cells, VERO cells, "Cc1c(CN2CCN(C)CC2)cc(-c2ccc(F)cc2)n1-c1ccc(F)cc1F"
Result block: 16

Query block: Report value only: MNTD50 (μg/mL) VERO cells, VERO cells, "Cc1ccc(-n2c(-c3ccc(F)cc3)cc(CN3CCSCC3)c2C)cc1"
Result block: 8

Query block: Report value only: MNTD50 (μg/mL) VERO cells, VERO cells, "Cc1c(CN2CCSCC2)cc(-c2ccc(F)cc2)n1-c1ccccc1Cl"
Result block: 8

Query block: Report value only: MNTD50 (μg/mL) VERO cells, VERO cells, "Cc1c(CN2CCSCC2)cc(-c2ccccc2F)n1-c1ccc(F)cc1"
Result block: 16

Query block: Report value only: MNTD50 (μg/mL) VERO cells, VERO cells, "Cc1c(CN2CCN(C)CC2)cc(-c2ccc(F)cc2)n1-c1ccccc1F"
Result block: 8

Query block: Report value only: MNTD50 (μg/mL) VERO cells, VERO cells, "Cc1c(CN2CCN(C)CC2)cc(-c2ccc(Cl)cc2Cl)n1-c1ccc(F)cc1"
Result block: 16

Query block: Report value only: MNTD50 (μg/mL) VERO cells, VERO cells, "Cc1c(CN2CCN(C)CC2)cc(-c2ccc(F)cc2)n1-c1cccc2ccccc12"
Result block: 4

###

Test system: M. smegmatis 103599
Assay: Antimycobacterial activity toward atypical mycobacteria, MIC in broth
Type: cell-based
Conditions: Mycolicibacterium smegmatis, 103599; read-out: MIC (μg/mL) M. smegmatis 103599
Below, each of the molecules is paired with its reported MIC value.
Unit µg/mL implied. Number only.

Solved cases (3 shown):
MOLECULE | TGT | VALUE_KIND | OBSERVED
Cc1c(CN2CCSCC2)cc(-c2ccc(F)cc2)n1-c1ccccc1F [Compound 7c] | M. smegmatis 103599 | MIC | 8
CO[C@H]1/C=C/O[C@@]2(C)Oc3c(C)c(O)c4c(O)c(c(/C=N/N5CCN(C)CC5)c(O)c4c3C2=O)NC(=O)/C(C)=C\C=C\[C@H](C)[C@H](O)[C@@H](C)[C@@H](O)[C@@H](C)[C@H](OC(C)=O)[C@@H]1C [Rifampin, reference compound] | M. smegmatis 103599 | MIC | 32
[H]/N=C(/N)N[C@H]1[C@H](O)[C@@H](O)[C@H](O[C@@H]2O[C@@H](C)[C@](O)(C=O)[C@H]2O[C@@H]2O[C@@H](CO)[C@H](O)[C@@H](O)[C@@H]2NC)[C@@H](N/C(N)=N\[H])[C@@H]1O [Streptomycin, reference compound] | M. smegmatis 103599 | MIC | 8

Query block: Tell us which MIC value is on record for Cc1c(CN2CCN(C)CC2)cc(-c2ccc(Cl)cc2)n1-c1ccc(Cl)cc1 [BM212, reference compound]
Result block: 25

Query block: Tell us which MIC value is on record for Cc1ccc(-c2cc(CN3CCSCC3)c(C)n2-c2ccc(F)cc2)cc1 [Compound 6e]
Result block: 16

###

Test system: VERO cells
Experiment: Cytotoxicity on Vero cell monolayers (MNTD50)
Assay type: cell-based
Details: maximum 50% non-toxic dose, 5 days
VALUE_KIND: MNTD50 (μg/mL) VERO cells (µg/mL)
Unit µg/mL implied. Number only.

COMPOUND | OBSERVED
Cc1c(CN2CCSCC2)cc(-c2ccccc2Cl)n1-c1ccc(F)cc1 | 4
Cc1c(CN2CCSCC2)cc(-c2ccc(F)cc2)n1-c1ccc(Cl)cc1Cl | 4
Cc1c(CN2CCN(C)CC2)cc(-c2ccc(F)cc2)n1-c1ccc(Cl)cc1Cl | 2

# next compound below
Query block: Report value only: MNTD50 (μg/mL) VERO cells, VERO cells, "Cc1c(CN2CCN(C)CC2)cc(-c2ccccc2Cl)n1-c1ccc(F)cc1"
Result block: 2

###

System: M. tuberculosis 103471
Assay: Antimycobacterial activity, MIC in Middlebrook 7H9 broth (NCCLS procedure)
Type: cell-based
Conditions: extracellular M. tuberculosis 103471
VALUE_KIND: M. tuberculosis 103471 MIC (µg/mL)
Unit µg/mL implied. Number only.

Solved cases (7 shown):
SMILES_TEXT | TGT | UNITS_LABEL | OBSERVED
Cc1ccc(-n2c(-c3ccc(F)cc3)cc(CN3CCSCC3)c2C)cc1 | M. tuberculosis 103471 | µg/mL | 4
Cc1c(CN2CCSCC2)cc(-c2ccc(F)cc2)n1-c1ccc(Cl)cc1Cl | M. tuberculosis 103471 | µg/mL | 1
Cc1ccc(-c2cc(CN3CCN(C)CC3)c(C)n2-c2ccc(F)cc2)cc1 | M. tuberculosis 103471 | µg/mL | 4
Cc1c(CN2CCN(C)CC2)cc(-c2ccc(F)cc2)n1-c1ccc(Cl)cc1Cl | M. tuberculosis 103471 | µg/mL | 4
Cc1c(CN2CCN(C)CC2)cc(-c2ccc(F)cc2)n1-c1ccccc1Cl | M. tuberculosis 103471 | µg/mL | 4
Cc1c(CN2CCN(C)CC2)cc(-c2ccc(F)cc2)n1-c1ccccc1F | M. tuberculosis 103471 | µg/mL | 8
Cc1c(CN2CCSCC2)cc(-c2ccc(Cl)cc2Cl)n1-c1ccc(F)cc1 | M. tuberculosis 103471 | µg/mL | 2

Query block: Tell us which M. tuberculosis 103471 MIC value is on record for "Cc1c(CN2CCSCC2)cc(-c2ccccc2Cl)n1-c1ccc(F)cc1"
Result block: 4

The measured values listed here are drawn from patent US8012970B2.
